Experiment: Rat pharmacokinetic study
Details: male, Sprague-Dawley, plasma, po, 50 mg/kg
Counter-ions that a name gives are not always drawn.
measurementKind: bioavailability
The answer should read as a number with its unit following.

// query May I ask what bioavailability has been recorded for O=C(O)CCCO [GHB sodium salt] ?
// result 26%

---

Assay: Dog pharmacokinetic study
Format: in vivo, male Beagle dogs
Conditions: male, Beagle, plasma, IV, GHB sodium salt 20 mg/kg (reference), read-out: Bioavailability F (%)
Structures can show the parent of a compound that is named as a salt.
measurementKind: bioavailability
Field note: include the unit after the figure.

// query Quick one: bioavailability for O=C(O)CCCO [GHB sodium salt] ?
// result 100%
